# assayedTarget: Desmoglein-3 (Homo sapiens) (UniProt P32926)
# Sequence (P32926 whole entry, looked up, the tested form may be a part): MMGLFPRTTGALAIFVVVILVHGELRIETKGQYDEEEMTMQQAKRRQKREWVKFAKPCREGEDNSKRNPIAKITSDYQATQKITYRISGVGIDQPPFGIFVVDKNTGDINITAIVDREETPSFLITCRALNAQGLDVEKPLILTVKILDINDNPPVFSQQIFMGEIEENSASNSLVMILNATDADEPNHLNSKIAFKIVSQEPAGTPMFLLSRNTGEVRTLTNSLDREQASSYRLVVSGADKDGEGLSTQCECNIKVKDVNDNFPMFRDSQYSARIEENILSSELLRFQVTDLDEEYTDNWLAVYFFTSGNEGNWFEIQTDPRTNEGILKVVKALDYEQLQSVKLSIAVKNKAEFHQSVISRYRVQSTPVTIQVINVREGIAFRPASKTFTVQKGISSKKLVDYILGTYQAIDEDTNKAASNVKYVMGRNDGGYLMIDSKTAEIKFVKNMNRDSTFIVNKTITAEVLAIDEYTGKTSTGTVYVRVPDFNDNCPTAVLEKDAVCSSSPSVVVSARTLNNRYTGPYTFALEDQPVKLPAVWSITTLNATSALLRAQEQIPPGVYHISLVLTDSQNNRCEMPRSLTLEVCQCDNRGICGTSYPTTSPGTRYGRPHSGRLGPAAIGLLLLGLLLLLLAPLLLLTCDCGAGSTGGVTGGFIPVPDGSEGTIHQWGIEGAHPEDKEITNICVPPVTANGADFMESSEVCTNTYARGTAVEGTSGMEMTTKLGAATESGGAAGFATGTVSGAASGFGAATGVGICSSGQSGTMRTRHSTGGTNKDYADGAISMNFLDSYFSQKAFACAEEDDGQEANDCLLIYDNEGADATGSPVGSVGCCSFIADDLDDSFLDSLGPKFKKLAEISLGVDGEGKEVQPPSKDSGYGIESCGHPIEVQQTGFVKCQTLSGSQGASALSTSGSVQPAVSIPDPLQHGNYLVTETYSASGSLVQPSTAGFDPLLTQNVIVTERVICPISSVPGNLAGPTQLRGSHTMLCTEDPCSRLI
# runDescription: blockers of anti-DSG3 scFv binding – biochemical, bead-based, flow cytometry, scFv-GFP, primary screen (AID 588358);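 note: hits lower antibody fragment binding to DSG3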
# particulars: DSG3-coupled beads, at 10 µM, active compounds read low
The whole screen tested about 310,000 compounds, of which about 1,500 (0.48%) were called active. The entries come from a sample that favours actives as a whole.
Would you mind telling me the reported binding (percent of control) of each entry?
Give bare numbers, in %.

| molecule | binding (percent of control) / % |
| --- | --- |
| COc1ccc(NC(=O)CCCOc2ccc(C(C)=O)cc2)cc1S(=O)(=O)N1CCCCC1 | 109 |
| Cc1nn(CC(=O)Nc2ccc(F)cc2)c(=O)c2ccccc12 | 105 |
| O=C(CSc1ncn[nH]1)Nc1nc2c(F)c(F)c(F)cc2s1 | 94 |
| Cc1ccc(NC(=O)c2sc3nc(N)c(C#N)cc3c2N)cc1 | 99.5 |

Give binding (percent of control) for all molecules that follow.
1. COc1cccc(NC(=O)Nc2ccc(F)cc2)c1
2. CCN1CCCC1CNC(=O)c1ccc2c(c1)NC(=O)/C(=C\c1ccccc1F)S2 (stereo not drawn)
3. COc1ccc(Cl)cc1NC(=O)CN(C)C(=O)c1cn(-c2ccccc2)nc1-c1cccs1
4. FC(F)(F)C1CCCN(c2nsc3ccccc23)C1 (stereo not drawn)
5. CCCC(C(=O)N1CCOCC1)N1C(=O)C2C3C=CC(C3)C2C1=O (stereo not drawn)
6. CCOC(=O)C(=Cc1ccccc1)C(=O)c1ccccc1
7. COc1ccc(/C=C/C(=O)N2CCCC2)cc1OC
8. COc1cccc(/C=C2\SC(=S)N(CCCC(=O)N3CCOCC3)C2=O)c1

1. 99.8
2. 94.9
3. 112
4. 59.3
5. -12.4
6. 106
7. 105
8. 99.8

Field request: binding (percent of control) | item: CNS(=O)(=O)c1ccc(NC(=O)Nc2ccc3c(c2)OCO3)cc1 66.6
